system: HT-29; assay: NCI tumour cell line growth inhibition, 48 h
Calls of active or inactive are those of the source. Rule as the data show it: active = GI50 up to about 1.1 µM and inactive = higher.
Outcome codes: 1.0 (active), 0.0 (inactive)

CSCCCN(CCCSC)CCCSC = 0.0
COc1ccccc1NC(=O)CC(=O)NNCC(=O)Nc1nnc(-c2ccccc2)o1 = 0.0
COC(=O)/C(=N/NC(=O)C[N+](C)(C)C)C(C(=O)OC)C(=O)C(=O)Nc1ccc(F)cc1 (stereo unspecified) = 0.0
O=C(NC/C=C/Br)NC1CCNc2ccccc21 (stereo unspecified) = 0.0
COc1cc(C(=O)/C=C/c2ccc(OCCSCCCCCCCCCCSCCOc3ccc(/C=C/C(=O)c4cc(OC)c(OC)c(OC)c4)cc3)cc2)cc(OC)c1OC = 0.0
Cc1ccc(S(=O)(=O)N2CCN3CCN(CCN(C)CCN4CCN(CC4)CCN(S(=O)(=O)c4ccc(C)cc4)CCN(S(=O)(=O)c4ccc(C)cc4)CCN(S(=O)(=O)c4ccc(C)cc4)CCN(S(=O)(=O)c4ccc(C)cc4)CCN4CCN(CCN(C)CCN5CCN(CC5)CCN(S(=O)(=O)c5ccc(C)cc5)CCN(S(=O)(=O)c5ccc(C)cc5)CCN(S(=O)(=O)c5ccc(C)cc5)CC2)CC4)CC3)cc1 = 1.0

src = ChEMBL document CHEMBL1201862
